# protocol: Inhibition of glycogen phosphorylase
# Design: species or system Homo sapiens
measure_name: IC50 (mM)
// note: answer is a bare numeric in mM

Inquiry: Could you share which IC50 value was measured for O=C1NC(=O)C(Cc2ccc(OCC3COc4cc5c(cc4O3)OCO5)cc2)S1 (stereo unspecified) ?
Reply text: 7
